This collection of values is drawn from PubChem BioAssay AID602156.

Tested on: P. yoelii liver stage in HepG2-A16-CD81EGFP, imaging
Experiment: exo-erythrocytic parasite development inhibition – imaging, Malaria Box, P. yoelii, HepG2-A16-CD81EGFP, dose response (AID 602156);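 note: infected cells exposed to compound for 48 hours before fixation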
The source made the active and inactive calls. The rule behind the calls is not given here.
Please provide measured IC50 for the entries that follow.

Annotate the compound "Cc1ccc(CSCc2ccc(C(=O)NC3CC3)o2)cc1" with its measured IC50.
47.3 nM

Annotate the compound "CCCc1nc2ccc(NC(=O)c3ccccc3F)cc2c(=O)n1Cc1ccc(-c2ccccc2)cc1" with its measured IC50.
1730 nM

Annotate the compound "C=CC[N+]1(CC#Cc2cccc3ccccc23)CCCCC1" with its measured IC50.
908 nM

Annotate the compound "c1ccc(OCCOc2ccc(Nc3c4ccccc4nc4ccccc34)cc2)cc1" with its measured IC50.
559 nM

Annotate the compound "CCCCc1c(C)[nH]c2c(OC)cccc2c1=O" with its measured IC50.
561 nM

Annotate the compound "O=C(O)c1c[nH]c2cc(N3CCCCCC3)c(F)cc2c1=O" with its measured IC50.
> 10000 nM (inactive)

Annotate the compound "FC(F)(F)c1ccccc1NC(=S)N1CCCN(c2nc3ccc(Cl)cc3s2)CC1" with its measured IC50.
1620 nM

Annotate the compound CCOC(=O)C1=C(C)NC2=C(C(=O)C(C(=O)OCC)C(c3ccccc3OC)C2)C1c1ccc([N+](=O)[O-])cc1 (configuration not stated) with its measured IC50.
335 nM

Annotate the compound "CCOc1ccc(Nc2nc(NCc3ccccc3)c3ccccc3n2)cc1" with its measured IC50.
480 nM

Annotate the compound CC(C)CC(N)C(=O)N1CCn2c(nc(-c3ccccc3)c2Nc2ccc3c(c2)OCO3)C1 (configuration not stated) with its measured IC50.
186 nM

Annotate the compound "O=c1c2c([nH]c3ccccc13)CCCCCC2" with its measured IC50.
727 nM

Annotate the compound "Oc1cccc2ccc(Nc3ccccn3)nc12" with its measured IC50.
142 nM

Annotate the compound NC(Cc1ccccc1)C(=O)N1CCn2c(nc(-c3ccccc3)c2Nc2ccc3c(c2)OCO3)C1 (configuration not stated) with its measured IC50.
1.85 nM

Annotate the compound "CCOC(=O)c1ccc2[nH]c(-c3ccccc3)cc(=O)c2c1" with its measured IC50.
20 nM

Annotate the compound "CCC[n+]1cccc2ccc3cccnc3c21" with its measured IC50.
903 nM

Annotate the compound "COc1ccc2nc(C)cc(Nc3ccc(Oc4ccc(Cl)c5ccccc45)c(Cl)c3)c2c1" with its measured IC50.
267 nM

Annotate the compound "CCCCn1c(N=Nc2c(O)[nH]c3ccccc23)nc2c1c(=O)[nH]c(=O)n2C" with its measured IC50.
> 10000 nM (inactive)

Annotate the compound "CCOc1ccc(Nc2cc(=O)oc3ccccc23)cc1" with its measured IC50.
502 nM

Annotate the compound "O=C(Nc1ccc(-c2ccc(Cl)cc2)cc1)c1cccs1" with its measured IC50.
151 nM

Annotate the compound "CCCN(CCC)CCCNc1ccc(C(=O)Nc2ccc(C)c(F)c2)cc1[N+](=O)[O-]" with its measured IC50.
646 nM

Annotate the compound CC(c1nc2ccccc2c(=O)n1C)N1CCN(C(=O)C(C)(C)C)CC1 (configuration not stated) with its measured IC50.
492 nM

Annotate the compound "COc1ccc2nc(SCC(=O)Nc3cccc(NC(=O)CSc4nc5ccc(OC)cc5[nH]4)n3)[nH]c2c1" with its measured IC50.
> 9290 nM (inactive)
